assay: Metabolic stability in human liver microsomes assessed as compound remaining at 1 uM after 0.5 hrs; format: ADME; settings: read-out: Stability
Entries annotated with measured remaining at 0.5 h, 1 µM
Readout label: remaining at 0.5 h, 1 µM (%)

[[record]]
structure_smiles = "C[C@H](c1ccc(F)cc1)N1C(=O)O[C@](Cc2ccccc2)(c2nc3c(F)cccc3[nH]2)C1=O"
value = 57

[[record]]
structure_smiles = "C[C@H](c1ccc(F)cc1)N1C(=O)O[C@](Cc2ccccc2)(c2nc3cc(Cl)ccc3[nH]2)C1=O"
value = 55

[[record]]
structure_smiles = "C[C@H](c1ccc(F)cc1)N1C(=O)O[C@](Cc2ccccc2)(c2nc3cc(N4CCOCC4)ccc3[nH]2)C1=O"
value = 81

[[record]]
structure_smiles = "C[C@H](c1ccc(F)cc1)N1C(=O)O[C@](Cc2ccccc2)(c2nc3cc(NS(C)(=O)=O)ccc3[nH]2)C1=O"
value = 93

[[record]]
structure_smiles = "CC(=O)Nc1cccc2[nH]c([C@@]3(Cc4ccccc4)OC(=O)N([C@H](C)c4ccc(F)cc4)C3=O)nc12"
value = 89

[[record]]
structure_smiles = "C[C@H](c1ccc(F)cc1)N1C(=O)O[C@](Cc2ccccc2)(c2nc3cc(OC(F)(F)F)ccc3[nH]2)C1=O"
value = 105

[[record]]
structure_smiles = "C[C@H](c1ccc(F)cc1)N1C(=O)O[C@](Cc2ccccc2)(c2nc3ccccc3[nH]2)C1=O"
value = 58

[[record]]
structure_smiles = "C[C@H](c1ccc(F)cc1)N1C(=O)O[C@](Cc2ccccc2)(c2nc3c(-c4cccnc4)cccc3[nH]2)C1=O"
value = 38

[[record]]
structure_smiles = "C[C@H](c1ccc(F)cc1)N1C(=O)O[C@](Cc2ccccc2)(c2nc3cc(-c4cnn(C)c4)ccc3[nH]2)C1=O"
value = 72

[[record]]
structure_smiles = "C[C@H](c1ccc(F)cc1)N1C(=O)O[C@](Cc2ccccc2)(c2nc3c(C(F)(F)F)cccc3[nH]2)C1=O"
value = 77

[[record]]
structure_smiles = "C[C@H](c1ccc(F)cc1)N1C(=O)O[C@](Cc2ccccc2)(c2nc3cc(-n4cnnn4)ccc3[nH]2)C1=O"
value = 86

[[record]]
structure_smiles = "C[C@H](c1ccc(F)cc1)N1C(=O)O[C@](Cc2ccccc2)(c2nc3cc(C(F)(F)F)ccc3[nH]2)C1=O"
value = 89

[[record]]
structure_smiles = "C[C@H](c1ccc(F)cc1)N1C(=O)O[C@](Cc2ccccc2)(c2nc3c(-c4cc[nH]n4)cccc3[nH]2)C1=O"
value = 25

[[record]]
structure_smiles = "CNC(=O)c1ccc2[nH]c([C@@]3(Cc4ccccc4)OC(=O)N([C@H](C)c4ccc(F)cc4)C3=O)nc2c1"
value = 75

[[record]]
structure_smiles = "C[C@H](c1ccc(F)cc1)N1C(=O)O[C@](Cc2ccccc2)(c2nc3cc(-c4ccncc4)ccc3[nH]2)C1=O"
value = 68


====

target: Mineralocorticoid receptor (Homo sapiens, UniProt P08235); assay: Antagonist activity at human mineralocorticoid receptor overexpressed in CHOK1 cells assessed as inhibition of aldosterone-induced protein interaction with coactivator peptide after 6 hrs by luminescence assay
Sequence (P08235 whole entry): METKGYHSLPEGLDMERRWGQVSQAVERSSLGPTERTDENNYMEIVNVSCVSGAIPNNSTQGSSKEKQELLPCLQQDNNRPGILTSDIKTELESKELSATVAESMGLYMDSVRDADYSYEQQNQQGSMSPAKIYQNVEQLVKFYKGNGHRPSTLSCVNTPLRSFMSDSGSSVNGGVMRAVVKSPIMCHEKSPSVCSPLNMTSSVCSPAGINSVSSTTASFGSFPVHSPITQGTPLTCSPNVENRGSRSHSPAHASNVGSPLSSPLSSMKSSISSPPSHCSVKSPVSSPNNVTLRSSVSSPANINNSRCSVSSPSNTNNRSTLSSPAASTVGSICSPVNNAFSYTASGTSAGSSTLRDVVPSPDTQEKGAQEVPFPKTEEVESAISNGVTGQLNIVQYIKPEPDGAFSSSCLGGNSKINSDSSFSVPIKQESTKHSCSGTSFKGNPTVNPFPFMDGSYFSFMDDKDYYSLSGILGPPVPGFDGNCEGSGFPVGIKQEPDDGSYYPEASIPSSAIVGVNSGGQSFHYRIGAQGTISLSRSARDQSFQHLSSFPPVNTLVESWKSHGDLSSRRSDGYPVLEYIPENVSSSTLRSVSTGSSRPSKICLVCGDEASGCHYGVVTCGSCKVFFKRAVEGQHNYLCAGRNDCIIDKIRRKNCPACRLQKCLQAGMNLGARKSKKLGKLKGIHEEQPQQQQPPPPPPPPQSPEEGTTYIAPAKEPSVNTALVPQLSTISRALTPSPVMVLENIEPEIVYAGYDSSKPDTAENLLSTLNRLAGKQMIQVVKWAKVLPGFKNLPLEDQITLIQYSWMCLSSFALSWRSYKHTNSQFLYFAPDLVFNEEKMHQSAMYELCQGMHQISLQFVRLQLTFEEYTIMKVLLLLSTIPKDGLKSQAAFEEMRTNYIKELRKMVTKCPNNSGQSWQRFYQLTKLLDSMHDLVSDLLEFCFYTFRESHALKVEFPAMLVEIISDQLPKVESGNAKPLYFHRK
pIC50: −log10 of the molar value.
Kind request: treat 7 as inclusive, so pIC50 at 7 or higher is Yes, anything lower is No.

[[record]]
structure_smiles = "C[C@H](c1ccc(F)cc1)N1C(=O)O[C@](Cc2ccccc2)(c2nc3cc(-c4cncnc4)ccc3[nH]2)C1=O"
tested_on = "Mineralocorticoid receptor (Homo sapiens, UniProt P08235)"
class_label = "Yes"

[[record]]
structure_smiles = "C[C@H](c1ccc(F)cc1)N1C(=O)O[C@](Cc2ccccc2)(c2nc3cc(N4CCOCC4)ccc3[nH]2)C1=O"
tested_on = "Mineralocorticoid receptor (Homo sapiens, UniProt P08235)"
class_label = "Yes"

[[record]]
structure_smiles = "Cc1nocc1-c1ccc2[nH]c([C@@]3(Cc4ccccc4)OC(=O)N([C@H](C)c4ccc(F)cc4)C3=O)nc2c1"
tested_on = "Mineralocorticoid receptor (Homo sapiens, UniProt P08235)"
class_label = "Yes"

[[record]]
structure_smiles = "CNC(=O)c1ccc2[nH]c([C@@]3(Cc4ccccc4)OC(=O)N([C@H](C)c4ccc(F)cc4)C3=O)nc2c1"
tested_on = "Mineralocorticoid receptor (Homo sapiens, UniProt P08235)"
class_label = "No"

[[record]]
structure_smiles = "C[C@H](c1ccc(F)cc1)N1C(=O)O[C@](Cc2ccccc2)(c2nc3cc(-c4ccncc4)ccc3[nH]2)C1=O"
tested_on = "Mineralocorticoid receptor (Homo sapiens, UniProt P08235)"
class_label = "Yes"

[[record]]
structure_smiles = "C[C@H](c1ccc(F)cc1)N1C(=O)O[C@](Cc2ccccc2)(c2nc3cc(OC(F)(F)F)ccc3[nH]2)C1=O"
tested_on = "Mineralocorticoid receptor (Homo sapiens, UniProt P08235)"
class_label = "No"

[[record]]
structure_smiles = "C[C@H](c1ccc(F)cc1)N1C(=O)O[C@](Cc2ccccc2)(c2nc3cc(-c4cnn(C)c4)ccc3[nH]2)C1=O"
tested_on = "Mineralocorticoid receptor (Homo sapiens, UniProt P08235)"
class_label = "Yes"

[[record]]
structure_smiles = "C[C@H](c1ccc(F)cc1)N1C(=O)O[C@](Cc2ccccc2)(c2nc3c(-c4ccncc4)cccc3[nH]2)C1=O"
tested_on = "Mineralocorticoid receptor (Homo sapiens, UniProt P08235)"
class_label = "No"

[[record]]
structure_smiles = "C[C@H](c1ccc(F)cc1)N1C(=O)O[C@](Cc2ccccc2)(c2nc3cc(-c4cn[nH]c4)ccc3[nH]2)C1=O"
tested_on = "Mineralocorticoid receptor (Homo sapiens, UniProt P08235)"
class_label = "Yes"

[[record]]
structure_smiles = "C[C@H](c1ccc(F)cc1)N1C(=O)O[C@](Cc2ccccc2)(c2nc3cc(NS(C)(=O)=O)ccc3[nH]2)C1=O"
tested_on = "Mineralocorticoid receptor (Homo sapiens, UniProt P08235)"
class_label = "No"

[[record]]
structure_smiles = "C[C@H](c1ccc(F)cc1)N1C(=O)O[C@](Cc2ccccc2)(c2nc3c(NS(C)(=O)=O)cccc3[nH]2)C1=O"
tested_on = "Mineralocorticoid receptor (Homo sapiens, UniProt P08235)"
class_label = "No"

[[record]]
structure_smiles = "C[C@H](c1ccc(F)cc1)N1C(=O)O[C@](Cc2ccccc2)(c2nc3c(-c4cnoc4)cccc3[nH]2)C1=O"
tested_on = "Mineralocorticoid receptor (Homo sapiens, UniProt P08235)"
class_label = "No"

[[record]]
structure_smiles = "CC(=O)Nc1cccc2[nH]c([C@@]3(Cc4ccccc4)OC(=O)N([C@H](C)c4ccc(F)cc4)C3=O)nc12"
tested_on = "Mineralocorticoid receptor (Homo sapiens, UniProt P08235)"
class_label = "No"

[[record]]
structure_smiles = "C[C@H](c1ccc(F)cc1)N1C(=O)O[C@](Cc2ccccc2)(c2nc3cc(-c4cccnc4)ccc3[nH]2)C1=O"
tested_on = "Mineralocorticoid receptor (Homo sapiens, UniProt P08235)"
class_label = "Yes"

[[record]]
structure_smiles = "C[C@H](c1ccc(F)cc1)N1C(=O)O[C@](Cc2ccccc2)(c2nc3c(-c4cccnc4)cccc3[nH]2)C1=O"
tested_on = "Mineralocorticoid receptor (Homo sapiens, UniProt P08235)"
class_label = "No"

[[record]]
structure_smiles = "C[C@H](c1ccc(F)cc1)N1C(=O)O[C@](Cc2ccccc2)(c2nc3c(-c4cc[nH]n4)cccc3[nH]2)C1=O"
tested_on = "Mineralocorticoid receptor (Homo sapiens, UniProt P08235)"
class_label = "No"

